experiment: activity coefficient (dimensionless); of the first substance listed, at infinite dilution; xn = mol fraction of the nth substance listed; conditions: 353.15 K; Liquid; Chromatography; x1 = 0
PROPERTY_MEASURED: activity coefficient
In your answer, state the number alone without any accompanying words.

Reported activity coefficient of c1ccccc1 [benzene] + CCCCCCCCn1cc[n+](C)c1.O=[N+]([O-])[O-] : 1

Reported activity coefficient of CC(C)CC(C)(C)C [2,2,4-trimethylpentane] + CCCCCCCCn1cc[n+](C)c1.O=[N+]([O-])[O-] : 12.3

Reported activity coefficient of CCCCCCCC [octane] + CCCCCCCCn1cc[n+](C)c1.O=[N+]([O-])[O-] : 14.8

Next, consider the following compound.
Reported activity coefficient of CCCCC [pentane] + CCCCCCCCn1cc[n+](C)c1.O=[N+]([O-])[O-] : 6.19

* * *

test: activity coefficient (dimensionless); of the first substance listed, at infinite dilution; xn = mol fraction of the nth substance listed; settings: 333.15 K; Liquid; Chromatography; x1 = 0
Reported activity coefficient values for a set of compounds
In your answer, state the number alone without any accompanying words.

# count of solved cases: 4
Reported activity coefficient of CCCCCCC [heptane] + CCCCCCCCn1cc[n+](C)c1.O=[N+]([O-])[O-] : 12.3

Reported activity coefficient of CCO [ethanol] + CCCCCCCCn1cc[n+](C)c1.O=[N+]([O-])[O-] : 0.34

Reported activity coefficient of CC(C)CC(C)(C)C [2,2,4-trimethylpentane] + CCCCCCCCn1cc[n+](C)c1.O=[N+]([O-])[O-] : 14.1

Reported activity coefficient of Cc1cccc(C)c1 [1,3-dimethylbenzene] + CCCCCCCCn1cc[n+](C)c1.O=[N+]([O-])[O-] : 2.06

Continuing:
Reported activity coefficient of CC1CCCCC1 [methylcyclohexane] + CCCCCCCCn1cc[n+](C)c1.O=[N+]([O-])[O-] : 7.11

Reported activity coefficient of CO [methanol] + CCCCCCCCn1cc[n+](C)c1.O=[N+]([O-])[O-] : 0.24

Reported activity coefficient of C1CCCCC1 [cyclohexane] + CCCCCCCCn1cc[n+](C)c1.O=[N+]([O-])[O-] : 5.58

Reported activity coefficient of Cc1ccccc1 [toluene] + CCCCCCCCn1cc[n+](C)c1.O=[N+]([O-])[O-] : 1.43

* * *

test: activity coefficient (dimensionless); of the first substance listed, at infinite dilution; xn = mol fraction of the nth substance listed; conditions: 323.15 K; Liquid; Chromatography; x1 = 0
PROPERTY_MEASURED: activity coefficient

# count of solved cases: 7
Reported activity coefficient of Cc1ccccc1 [toluene] + CCCCCCCCn1cc[n+](C)c1.O=[N+]([O-])[O-] : 1.42

Reported activity coefficient of CC(C)=O [acetone] + CCCCCCCCn1cc[n+](C)c1.O=[N+]([O-])[O-] : 0.81

Reported activity coefficient of ClCCl [dichloromethane] + CCCCCCCCn1cc[n+](C)c1.O=[N+]([O-])[O-] : 0.34

Reported activity coefficient of CCOC(C)=O [ethyl acetate] + CCCCCCCCn1cc[n+](C)c1.O=[N+]([O-])[O-] : 1.63

Reported activity coefficient of CCCO [propan-1-ol] + CCCCCCCCn1cc[n+](C)c1.O=[N+]([O-])[O-] : 0.4

Reported activity coefficient of ClC(Cl)Cl [trichloromethane] + CCCCCCCCn1cc[n+](C)c1.O=[N+]([O-])[O-] : 0.19

Reported activity coefficient of CCO [ethanol] + CCCCCCCCn1cc[n+](C)c1.O=[N+]([O-])[O-] : 0.35

Continuing:
Reported activity coefficient of Cc1ccc(C)cc1 [1,4-dimethylbenzene] + CCCCCCCCn1cc[n+](C)c1.O=[N+]([O-])[O-] : 2

* * *

Reported activity coefficient values for a set of compounds
assay: activity coefficient (dimensionless); of the first substance listed, at infinite dilution; xn = mol fraction of the nth substance listed; details: 323.15 K; Liquid; Chromatography; x1 = 0
In your answer, state the number alone without any accompanying words.

Reported activity coefficient of CC(C)CC(C)(C)C [2,2,4-trimethylpentane] + CCCCCCCCn1cc[n+](C)c1.O=[N+]([O-])[O-] : 15.4

Reported activity coefficient of CCCCCC [hexane] + CCCCCCCCn1cc[n+](C)c1.O=[N+]([O-])[O-] : 10.5

Reported activity coefficient of CCCCCCCC [octane] + CCCCCCCCn1cc[n+](C)c1.O=[N+]([O-])[O-] : 16.2

Reported activity coefficient of C1CCOC1 [tetrahydrofuran] + CCCCCCCCn1cc[n+](C)c1.O=[N+]([O-])[O-] : 1.01

Continuing:
Reported activity coefficient of CCCCCCCCC [nonane] + CCCCCCCCn1cc[n+](C)c1.O=[N+]([O-])[O-] : 20.9

* * *

Reported activity coefficient values for a set of molecules
assay: activity coefficient (dimensionless); of the first substance listed, at infinite dilution; xn = mol fraction of the nth substance listed; conditions: 333.15 K; Liquid; Chromatography; x1 = 0
In your answer, state the number alone without any accompanying words.

# count of solved cases: 4
Reported activity coefficient of CC(C)=O [acetone] + CCCCCCCCn1cc[n+](C)c1.O=[N+]([O-])[O-] : 0.79

Reported activity coefficient of CCCCCCCCC [nonane] + CCCCCCCCn1cc[n+](C)c1.O=[N+]([O-])[O-] : 20.1

Reported activity coefficient of CCCCCC [hexane] + CCCCCCCCn1cc[n+](C)c1.O=[N+]([O-])[O-] : 9.74

Reported activity coefficient of CCOC(C)=O [ethyl acetate] + CCCCCCCCn1cc[n+](C)c1.O=[N+]([O-])[O-] : 1.63

Continuing:
Reported activity coefficient of CC(C)O [propan-2-ol] + CCCCCCCCn1cc[n+](C)c1.O=[N+]([O-])[O-] : 0.42

Measured values drawn from the NIST ThermoML archive (doi:10.1016/j.fluid.2012.05.006) for this set.
